Provenance of the data: PubChem BioAssay AID1851

target: Cytochrome P450 2D6 (Homo sapiens) (UniProt P10635)
Sequence (P10635 whole entry, looked up): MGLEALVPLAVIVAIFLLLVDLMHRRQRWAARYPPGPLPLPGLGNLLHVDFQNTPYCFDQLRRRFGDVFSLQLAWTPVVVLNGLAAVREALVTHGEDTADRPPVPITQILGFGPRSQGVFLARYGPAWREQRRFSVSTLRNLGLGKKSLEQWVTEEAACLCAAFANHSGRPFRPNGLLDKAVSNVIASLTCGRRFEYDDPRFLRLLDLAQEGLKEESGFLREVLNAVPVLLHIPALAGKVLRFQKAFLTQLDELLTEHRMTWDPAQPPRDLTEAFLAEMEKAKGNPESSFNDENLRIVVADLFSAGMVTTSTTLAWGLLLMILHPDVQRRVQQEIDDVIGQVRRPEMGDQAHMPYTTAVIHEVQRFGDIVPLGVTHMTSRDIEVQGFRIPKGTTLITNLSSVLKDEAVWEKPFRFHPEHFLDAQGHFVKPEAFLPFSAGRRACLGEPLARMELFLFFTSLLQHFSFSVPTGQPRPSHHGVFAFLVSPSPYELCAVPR
experiment.description: Cytochrome panel assay with activity outcomes
measurement.setup: recombinant CYP, pro-luciferin dealkylation, luminescence, p450-cyp2d6; series mostly up to 57.1 µM
Screen size: about 16,000 compounds; about 2,600 (16%) were called active. Not shown: some 20% with an inconclusive outcome. The call rests on the fitted dose curve; in most records, active means well fitted curve in the direction sought with a large enough effect; inconclusive means small, poorly fitted or top-dose-only effect, or effect the other way; inactive means no such curve, though single readings can be large or run the other way. A selection follows.
Labels: active, inactive

molecule	category
CC1(C)N=C(N)N=C(N)N1CCCCc1ccccc1	active
COc1cccc(Cn2c(=O)c(-c3ccccc3)nc3cnc(N(C)C)nc32)c1	inactive
Cn1cc(-c2nc3cnc(Oc4cccc(Cl)c4)nc3n(CCC#N)c2=O)c2ccccc21	inactive
COC(=O)c1c(-c2ccc3ccccc3c2)csc1NC(=O)Cc1ccc(OC)c(OC)c1	inactive
CCC(CC)C(=O)Nc1c2c(nn1-c1ccc(OC)cc1)CS(=O)(=O)C2	inactive
O=c1c2ccccc2c(-c2ccccc2)nn1Cc1ccc(Cl)cc1	active
COC(=O)c1ccc(NC(=O)c2ccccc2NS(=O)(=O)c2ccccc2)cc1	active
COc1ccc(S(=O)(=O)Nc2ccc(S(=O)(=O)N3CCCCC3)cc2)cc1C	inactive
O=C(CN1C(=O)C2C3C=CC(C3)C2C1=O)Nc1ccc(C(=O)O)cc1 (stereo not drawn)	inactive
CCOC(=O)C1=C(C)NC(C)=C(C(=O)OCC)C1c1sccc1C	inactive
CC(=O)OC1CCC(OC(C)=O)c2c1n([O-])c(C)c(C)[n+]2=O (stereo not drawn)	inactive
COc1ccc(NC(=O)N2CC[C@@]3(CCCN(C(=O)c4ccc(OC)cc4)C3)C2)cc1	inactive
O=c1c2ccccc2c(-c2ccc(Br)cc2)nn1Cc1ccccc1	inactive
Cc1ccc(S(=O)(=O)ON=C2CCN(S(=O)(=O)c3ccccc3)CC2)cc1	inactive
O=C(Nc1nnc(SCc2ccc(Cl)cc2Cl)s1)C1COc2ccccc2O1 (stereo not drawn)	inactive
COCC(=O)N1CCC2(CCCN(c3ccncc3)C2)CC1	inactive
CSc1nc2c(c(C(F)(F)F)n1)CC(C)CC2 (stereo not drawn)	inactive
Cc1ccc(-n2c(SCC(=O)N3CCOCC3)nnc2-c2cccnc2)cc1	inactive

====

target: Cytochrome P450 2D6 (Homo sapiens) (UniProt P10635)
experiment.description: Cytochrome panel assay with activity outcomes
measurement.setup: recombinant CYP, pro-luciferin dealkylation, luminescence, p450-cyp2d6; series mostly up to 57.1 µM
Hit rate of the full screen: of about 16,000 compounds, about 2,600 (16%) were called active. Another 20% or so got no clear call; they are omitted. The call rests on the fitted dose curve; in most records, active means well fitted curve in the direction sought with a large enough effect; inconclusive means small, poorly fitted or top-dose-only effect, or effect the other way; inactive means no such curve, though single readings can be large or run the other way. Not all results are given here.
Labels: 1 (yes) (active), 0 (no) (inactive)

compound	target	category
OC[C@@H](O)CN1CCN(c2ccccc2)CC1	Cytochrome P450 2D6 (Homo sapiens) (UniProt P10635)	0 (no)
O=C1N=C(N2CCOCC2)S/C1=C/c1cccs1	Cytochrome P450 2D6 (Homo sapiens) (UniProt P10635)	0 (no)
CC(C)NCCCOc1ccc(Cl)cc1Br	Cytochrome P450 2D6 (Homo sapiens) (UniProt P10635)	1 (yes)
O=c1[nH]c2cc([N+](=O)[O-])c([N+](=O)[O-])cc2[nH]c1=O	Cytochrome P450 2D6 (Homo sapiens) (UniProt P10635)	0 (no)
CCOC(=O)N1CCN(C(=O)CCn2nc(-c3ccccc3)ccc2=O)CC1	Cytochrome P450 2D6 (Homo sapiens) (UniProt P10635)	0 (no)
Cc1cc(OC(=O)c2cc(F)c(F)cc2Cl)nc(C)n1	Cytochrome P450 2D6 (Homo sapiens) (UniProt P10635)	0 (no)
COc1cccc(-c2nc(NC3CCNCC3)c3ccccc3n2)c1	Cytochrome P450 2D6 (Homo sapiens) (UniProt P10635)	0 (no)
O=C(N=NC(=O)c1ccc2c(O)n(C3CCCCC3)c(O)c2c1)c1cccnc1	Cytochrome P450 2D6 (Homo sapiens) (UniProt P10635)	0 (no)
CCOC(=O)CSc1ncc(OC)c(Sc2ccc(Cl)cc2)n1	Cytochrome P450 2D6 (Homo sapiens) (UniProt P10635)	0 (no)
COc1ccccc1C(c1nnnn1C(C)(C)C)N1CCN(Cc2ccncc2)CC1 (centres undefined)	Cytochrome P450 2D6 (Homo sapiens) (UniProt P10635)	1 (yes)
COc1cc(CNCCc2c[nH]c3ccccc23)ccc1OCc1ccccc1F	Cytochrome P450 2D6 (Homo sapiens) (UniProt P10635)	1 (yes)
Cc1nc2ccc(S(=O)(=O)NC(CC(C)C)C(=O)O)cc2s1 (centres undefined)	Cytochrome P450 2D6 (Homo sapiens) (UniProt P10635)	0 (no)
CCCCCSc1nnc(C)c(=O)[nH]1	Cytochrome P450 2D6 (Homo sapiens) (UniProt P10635)	0 (no)
CN1c2ccccc2Oc2c(c(=O)n(C)c(=O)n2C)C1c1cccc([N+](=O)[O-])c1 (centres undefined)	Cytochrome P450 2D6 (Homo sapiens) (UniProt P10635)	0 (no)
O=C(O)c1ccc(CSc2nc3ccccc3o2)cc1	Cytochrome P450 2D6 (Homo sapiens) (UniProt P10635)	0 (no)
CCNC(=O)c1ccc(-n2nc(C)cc2-c2ccccc2)cc1	Cytochrome P450 2D6 (Homo sapiens) (UniProt P10635)	0 (no)
CC1(C)CC(=O)C/C(=N/NC(=O)CCCOc2ccc(Cl)cc2Cl)C1	Cytochrome P450 2D6 (Homo sapiens) (UniProt P10635)	0 (no)
COc1cccc(-c2nc(NCCNC(C)=O)c3ccccc3n2)c1	Cytochrome P450 2D6 (Homo sapiens) (UniProt P10635)	1 (yes)
Cc1cc(C)cc(-n2c(O)c(C=NC3CCS(=O)(=O)C3)c3ccccc3c2=O)c1 (centres undefined)	Cytochrome P450 2D6 (Homo sapiens) (UniProt P10635)	0 (no)
Cc1cc(C)n(C(=O)c2cc3ccccc3c(=O)o2)n1	Cytochrome P450 2D6 (Homo sapiens) (UniProt P10635)	0 (no)
CCOC(=O)CSc1cc(=O)n(C)c2cc(Cl)ccc12	Cytochrome P450 2D6 (Homo sapiens) (UniProt P10635)	0 (no)
CC1CCCC(C)N1CCNC(=O)Cn1nc(-c2ccccc2)ccc1=O (centres undefined)	Cytochrome P450 2D6 (Homo sapiens) (UniProt P10635)	1 (yes)
COc1ccccc1C(c1nnnn1C(C)(C)C)N1CCCc2ccccc21 (centres undefined)	Cytochrome P450 2D6 (Homo sapiens) (UniProt P10635)	0 (no)
O=C(c1cccc(F)c1)N1CCC[C@@]2(CCN(c3cccc(-c4ccccc4)c3)C2)C1	Cytochrome P450 2D6 (Homo sapiens) (UniProt P10635)	0 (no)
C=CCSc1nc2ccccc2n1C(=O)/C=C/c1cc(OC)c(OC)c(OC)c1	Cytochrome P450 2D6 (Homo sapiens) (UniProt P10635)	0 (no)
Cc1ccc(C2C(C(=O)c3ccco3)=C(O)C(=O)N2c2nnc(C)s2)cc1 (centres undefined)	Cytochrome P450 2D6 (Homo sapiens) (UniProt P10635)	0 (no)
Cc1ccc(-n2c(O)cnc2Nc2nc(C)cc(C)n2)cc1	Cytochrome P450 2D6 (Homo sapiens) (UniProt P10635)	1 (yes)
N#Cc1cc2[nH]c(=O)c(=O)[nH]c2cc1[N+](=O)[O-]	Cytochrome P450 2D6 (Homo sapiens) (UniProt P10635)	0 (no)
Fc1ccc(CSc2ncnc3sc4c(c23)CCCC4)cc1	Cytochrome P450 2D6 (Homo sapiens) (UniProt P10635)	0 (no)
O=c1cnc2cnc(N3CCOCC3)nc2n1CCc1ccccc1	Cytochrome P450 2D6 (Homo sapiens) (UniProt P10635)	0 (no)
O=C(O)c1sc2cc(C(F)(F)F)cnc2c1-c1ccccc1	Cytochrome P450 2D6 (Homo sapiens) (UniProt P10635)	0 (no)
O=C(O)Cc1ccc2c(c1)N(S(=O)(=O)c1cccc(C(F)(F)F)c1)CC(C(=O)O)O2 (centres undefined)	Cytochrome P450 2D6 (Homo sapiens) (UniProt P10635)	0 (no)
Cc1ccc(-n2c(-c3ccccc3)cc(=O)nc2C)cc1	Cytochrome P450 2D6 (Homo sapiens) (UniProt P10635)	0 (no)
CCCCN1C(=O)C(NC(=O)C2CC2)(C(F)(F)F)C2=C1CC(C)(C)CC2=O (centres undefined)	Cytochrome P450 2D6 (Homo sapiens) (UniProt P10635)	0 (no)
CCOC(=O)C(C)CC(C)C(=O)N1CCOCCN(C(=O)C(C)CC(C)C(=O)OCC)CCOCC1 (centres undefined)	Cytochrome P450 2D6 (Homo sapiens) (UniProt P10635)	0 (no)
COc1cnc(-c2ccccc2)nc1Oc1cccc(C)c1	Cytochrome P450 2D6 (Homo sapiens) (UniProt P10635)	0 (no)
COc1ccc(C2=NC(C(F)(F)F)(C(F)(F)F)c3c(n(C)c(=O)n(C)c3=O)N2)cc1	Cytochrome P450 2D6 (Homo sapiens) (UniProt P10635)	0 (no)
CC(C)CN(C)c1nc(N)c(C(=O)N=C(N)N)nc1Cl	Cytochrome P450 2D6 (Homo sapiens) (UniProt P10635)	1 (yes)
CN(C)c1ccc(/C=C2/C(=O)Nc3ccccc32)cc1	Cytochrome P450 2D6 (Homo sapiens) (UniProt P10635)	0 (no)
